SYSTEM UNDER TEST: APOL1 G2 (Homo sapiens, UniProt O14791, DEL388-389)
Construct: expressed in transfected cells; host or cells: HEK293 T-REx clonal lines: HEK T-REx/GCaMP6f/APOL1 G2 K6.3 in A1, HEK293/T-REx APOL1 G2/clone #2 in A2
Sequence (O14791 with tags, fused parts or gaps DEL388-389): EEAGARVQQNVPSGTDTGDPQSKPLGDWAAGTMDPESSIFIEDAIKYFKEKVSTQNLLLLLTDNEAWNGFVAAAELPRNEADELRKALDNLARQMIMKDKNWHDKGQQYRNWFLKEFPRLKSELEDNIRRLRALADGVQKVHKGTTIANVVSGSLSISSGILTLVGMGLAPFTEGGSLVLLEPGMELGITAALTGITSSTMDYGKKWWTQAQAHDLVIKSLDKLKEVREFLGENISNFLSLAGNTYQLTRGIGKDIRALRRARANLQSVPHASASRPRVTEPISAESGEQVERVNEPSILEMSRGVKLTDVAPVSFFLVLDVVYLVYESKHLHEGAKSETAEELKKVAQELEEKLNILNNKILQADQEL
METHOD: APOL1 calcium transport inhibition assay (GCaMP6f calcium influx, FLIPR) in HEK T-REx/GCaMP6f/APOL1 G2 K6.3 cells
Type: cell-based
COND: inhibition of APOL1-mediated calcium influx; geometric mean of at least 2 assay runs, † = single assay run (technical duplicate)
Excerpt: A HEK293 clonal cell line was generated to stably express GCaMP6f, a genetically encoded calcium indicator, and inducibly express APOL1 G2 (HEK T-REx/GCaMP6f/APOL1 G2 K6.3). […]
ENDPOINT LABEL: AC50 (nM)
Answers are plain numbers, in nM.

COMPOUND	SYSTEM UNDER TEST	UNIT TEXT	AC50
CC1(C)CC(COc2ccc(S(C)(=O)=O)cc2)CN1CCc1cccc(Cl)c1 (stereo not shown) [Compound 42]	APOL1 G2 (Homo sapiens, UniProt O14791, DEL388-389)	nM	477
C[C@@H]1CN(CCc2cccc(Cl)c2)C[C@H]1COc1ccc(S(=O)(=O)CCCS(C)(=O)=O)cc1 (single isomer, unassigned)	APOL1 G2 (Homo sapiens, UniProt O14791, DEL388-389)	nM	2860
CN(c1ccc(OCC2CN(CCc3cccc(Cl)c3)CCCO2)cc1)S(C)(=O)=O (single isomer, unassigned) [Compound 11]	APOL1 G2 (Homo sapiens, UniProt O14791, DEL388-389)	nM	1190
CC1CNC(COc2ccc(S(C)(=O)=O)cc2)CN1CCc1cccc(Cl)c1 (single isomer, unassigned) [Compound 212]	APOL1 G2 (Homo sapiens, UniProt O14791, DEL388-389)	nM	2550
CS(=O)(=O)c1ccc(OC[C@H]2CCCN(CC(O)c3cccc(Cl)c3)C2)cc1 (single isomer, unassigned) [Compound 18]	APOL1 G2 (Homo sapiens, UniProt O14791, DEL388-389)	nM	5730

Hi team, please reply with AC50 for each item in this list.
1. C[C@@H]1CN(CC(O)c2cc(Cl)cc(C#N)c2)C[C@H]1COc1ccc(S(C)(=O)=O)cc1 (single isomer, unassigned) [Compound 121]
2. CC1CC(COc2ccc(S(C)(=O)=O)cc2)CN1CCc1cccc(C#N)c1 (single isomer, unassigned) [Compound 140]
3. CN(c1ccc(OC[C@H](O)CNC2(Cc3cccc(Cl)c3)CCOC2)cc1)S(C)(=O)=O (stereo partly shown)
4. CS(=O)(=O)c1ccc(OC[C@@H]2CCCN(CCc3cccc(Cl)c3)C2)cc1
5. C[C@@H]1C[C@H](COc2ccc(S(C)(=O)=O)cc2)CN1CC(O)c1cccc(Cl)c1 (single isomer, unassigned) [Compound 215]

-- reply
1: 270; 2: 107; 3: 682; 4: 287; 5: 229

Hi team, please reply with AC50 for each item in this list.
1. Cc1ccc(Cl)cc1CCN1CCN[C@H](COc2ccc(S(C)(=O)=O)cc2)C1
2. CS(=O)(=O)c1ccc(OCC2(O)CCCN(CCc3cccc(Cl)c3)C2)cc1 (stereo not shown) [Compound 4]
3. C[C@@H]1CN(CC(O)c2cccc(C#N)c2)C[C@H]1COc1ccc(S(C)(=O)=O)cc1 (single isomer, unassigned) [Compound 127]
4. C[C@@H]1CN(CC(O)c2cccc(C#N)c2)C[C@H]1COc1ccc(S(C)(=O)=O)cc1 (stereo partly shown) [Compound 126]
5. CS(=O)(=O)c1ccc(OC[C@@H]2CCCN(CC(O)c3cccc(Cl)c3)C2)cc1 (single isomer, unassigned) [Compound 21]
6. COCCS(=O)(=O)c1ccc(OC[C@H]2CN(CCc3cccc(Cl)c3)C[C@@H]2C)cc1 (single isomer, unassigned) [Compound 110]
7. COC(CN1CCC[C@H](COc2ccc(S(C)(=O)=O)cc2)C1)c1cccc(Cl)c1 (single isomer, unassigned) [Compound 23]

-- reply
1: 334; 2: 1070; 3: 2480; 4: 704; 5: 623; 6: 91.4; 7: 640

Hi team, please reply with AC50 for each item in this list.
1. C[C@@H]1CN(CCc2cccc(C#N)c2)C[C@H]1COc1ccc(S(C)(=O)=O)cc1
2. CS(=O)(=O)c1ccc(OCC2CN(CCc3cccc(Cl)c3)CCC2O)cc1 (racemic) [Compound 28]
3. C[C@@H]1CN(CCc2cc(Cl)cc(C#N)c2)C[C@H]1COc1ccc(S(=O)(=O)C2CNC2)cc1
4. CS(=O)(=O)c1ccc(OC[C@@H](O)CN2CCCCC2Cc2cccc(Cl)c2)cc1 (single isomer, unassigned) [Compound 63]
5. CC1CC(COc2ccc(S(C)(=O)=O)cc2)CN1CCc1cc(Cl)cc(C#N)c1 (single isomer, unassigned) [Compound 203]
6. CS(=O)(=O)c1ccc(OCC2(O)CCCN(CCc3cccc(Cl)c3)C2)cc1 (single isomer, unassigned) [Compound 6]

-- reply
1: 99.8; 2: 2000; 3: 491; 4: 637; 5: 9300; 6: 942
